Numbers sourced from paper PMC10244618.

B1: NF2 (merlin) isoform 7, human, full length (507 aa, lacks exons 2-3 = isoform-1 residues 39-121; exon-16 C-terminus), P35240-4 (parent)
chain: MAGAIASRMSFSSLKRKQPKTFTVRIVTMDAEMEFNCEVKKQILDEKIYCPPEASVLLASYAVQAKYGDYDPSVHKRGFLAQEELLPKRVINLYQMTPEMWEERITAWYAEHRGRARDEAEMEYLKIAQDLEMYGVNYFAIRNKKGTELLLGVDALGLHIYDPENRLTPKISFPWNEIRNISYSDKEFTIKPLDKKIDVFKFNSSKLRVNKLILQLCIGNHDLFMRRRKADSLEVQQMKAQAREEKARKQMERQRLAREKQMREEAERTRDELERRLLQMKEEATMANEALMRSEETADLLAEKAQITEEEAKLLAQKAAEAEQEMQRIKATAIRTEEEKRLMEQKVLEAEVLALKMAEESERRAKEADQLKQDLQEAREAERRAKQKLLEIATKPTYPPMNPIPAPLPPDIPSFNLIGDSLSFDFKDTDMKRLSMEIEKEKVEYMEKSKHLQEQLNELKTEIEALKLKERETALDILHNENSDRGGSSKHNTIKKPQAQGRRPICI

Variants of: B1
Assay: reverse yeast two-hybrid deep mutational scan (rY2H-seq): NF2 isoform 7 mutant library as bait mated with wild-type prey strains; selection on medium lacking adenine for non-interacting pairs; NextSeq paired-end sequencing; enrichment vs …
Conditions: with NF2 C-terminal domain (wild type; homomeric NF2-NF2 interaction), P35240; yeast diploids after mating (RBait_S3 x RPrey_S3), 30 °C, selection for reporter genes on NB agar; human ABL2 co-expressed as the kinase-dead K35M mutant …; HIGHER = WEAKER BINDING (the opposite of display enrichments): higher = stronger loss of interaction: reverse Y2H selects yeast in which bait and prey do NOT interact (growth without adenine), so a …; hits-only table; partner unresolved; scale: rY2H score; numbering: uniprot, sequence starts at 1
Here the recorded enrichment is given for each entry.
Lab note: jot the number down without any unit.

So what's the measured enrichment for this one? L466C
1.55

Entry E245K has what enrichment?
3.75

For T394R , what is its reported enrichment?
3.98
